tested on: LXRb:RXRa (NR concentration 270 nM, RXRa partner concentration 90 nM); assay: PBM binding z-score (relative to random genomic background probes); higher = stronger binding; sequences stand for … in GC…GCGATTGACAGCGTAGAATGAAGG
measured attribute: PBM binding z-score
// no unit string in output, number only

CGTCAAAGTTCAAGGAAACGTAACAGAAAGCAGC :: 2.97
CCGACTGGGGCGTAAGGTTACCATAAGCCAGCCC :: 0.704
CCTTGCGGGTCACGAGGTTATAGCACGACGAGCG :: 3.71
CCTTTCGGGTCACTGACAGGTTATAGCATTTGGA :: 3.33

Would you mind telling me what PBM binding z-score value was observed for `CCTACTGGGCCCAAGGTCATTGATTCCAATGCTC` ?
2.53

Likewise for `GCTTACGGGCCAAAGGTTATAGCATGAATAGAAT` ?
2.24
